FYI, the data here is from patent US5220018A.

molecular target: Gastrin Receptor (Cavia porcellus); construct: from tissue; host or cells: guinea pig gastric mucosal glands (collagenase-dispersed); experiment: Gastrin Receptor Binding in Guinea Pig Gastric Glands; design: species or system guinea pigs
Sequence (H0VZC5 1-426): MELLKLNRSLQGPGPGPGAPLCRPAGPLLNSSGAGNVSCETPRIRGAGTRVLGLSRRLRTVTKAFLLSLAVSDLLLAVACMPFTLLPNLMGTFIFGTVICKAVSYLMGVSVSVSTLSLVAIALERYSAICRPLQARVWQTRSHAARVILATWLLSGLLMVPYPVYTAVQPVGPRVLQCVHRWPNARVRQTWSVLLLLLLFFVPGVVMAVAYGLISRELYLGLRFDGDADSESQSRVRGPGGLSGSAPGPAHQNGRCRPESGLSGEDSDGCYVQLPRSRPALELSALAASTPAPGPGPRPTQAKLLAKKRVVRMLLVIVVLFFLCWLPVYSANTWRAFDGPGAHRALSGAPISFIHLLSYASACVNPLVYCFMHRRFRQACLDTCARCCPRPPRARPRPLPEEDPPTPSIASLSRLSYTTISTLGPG
measured.property: pIC50
Would you please state pIC50, meaning minus log10 of the concentration in mol/L, as a bare number?

Data request: Looking for the measured pIC50 of CN1C(=O)[C@H](NC(=O)Nc2cccc(-c3nnn[nH]3)c2)N=C(c2ccccc2)c2ccccc21 [Example 1] , can you help?
Data returned: 9.15

---

Target: CCK Receptor (Brain) (Cavia porcellus, UniProt H0VZC5)
Construct: the cortex was removed and homogenized in 25 mL ice-cold 0.32M sucrose; from tissue; host or cells: guinea pig cerebral cortex, P2 membrane pellet
Sequence (H0VZC5 1-426): as above
Test: CCK Receptor Binding (Brain), inhibition of 125I-CCK-8 binding
Set-up: species or system Male Hartley guinea pigs
Method: 2. CCK Receptor Binding (Brain) CCK-8 sulphated was radiolabelled and the binding was performed according to the description for the pancreas method with minor modifications. Male Hartley guinea pigs (300-500 g) were sacrificed by decapitation and the cortex was removed and homogenized in 25 mL ice-cold 0.32M sucrose. […] The radioactivity on the filters was then counted with a LKB gamma counter. […]
measured.property: IC50 (nM)
Value expressed in nM; do not type the unit.

Worked examples follow.
smiles.record | measured.property | test.value
CN1C(=O)[C@H](NC(=O)Nc2cccc(-c3nnn[nH]3)c2)N=C(c2ccccc2)c2ccccc21 | IC50 | 1
CN1C(=O)[C@H](NC(=O)Nc2ccc(Cl)nc2)N=C(c2ccccc2)c2ccccc21 | IC50 | 46

Read the next record carefully.
Data request: Looking for the measured IC50 of `CN1C(=O)[C@H](NC(=O)Nc2cccc(S(=O)(=O)NP(=O)(Oc3ccccc3)Oc3ccccc3)c2)N=C(c2ccccc2)c2ccccc21` , can you help?
Data returned: 15
